Species: Rattus norvegicus
measurementNotes: DrugMatrix - Regimen: Daily Repeat
Format: toxicity, organism-based, Sprague-Dawley
Parameters: regimen Daily Repeat, gender Male, age 6-8 weeks
testParameters: in vivo, po, 2000 mg/kg, 72 h, tissue Plasma, route oral GAVAGE, dose level High, time 3 day, vehicle .5 % CMC
Decision: ALBUMIN >= 4 G/DL yields MET, all other cases yield NOT MET.

| compound | className |
| --- | --- |
| O=C1Nc2ccc(Cl)cc2C(c2ccccc2Cl)=NC1O (stereo unspecified) | MET |
| CN(C/C=C/C#CC(C)(C)C)Cc1cccc2ccccc12 | NOT MET |
| NC1CCN(c2nc3c(cc2F)c(=O)c(C(=O)O)cn3-c2ccc(F)cc2F)C1 (stereo unspecified) | NOT MET |
| CN/C(=N/CCSCc1nc[nH]c1C)NC#N | MET |
| CC1(C)S[C@@H]2[C@H](NC(=O)[C@H](N)c3ccccc3)C(=O)N2[C@H]1C(=O)O | MET |
| COc1cc2nc(N3CCN(C(=O)c4ccco4)CC3)nc(N)c2cc1OC | NOT MET |

----------
Listed next: entries and their corresponding HEMOGLOBIN.
Species on record: Rattus norvegicus
measurementNotes: DrugMatrix - Regimen: Daily Repeat
Type: toxicity, organism-based, Sprague-Dawley
Parameters: regimen Daily Repeat, gender Male, age 6-8 weeks
testParameters: in vivo, po, 0 mg/kg, 72 h, tissue Blood, route oral GAVAGE, dose level Control, time 3 day, vehicle 100 % WATER

| compound | units | HEMOGLOBIN |
| --- | --- | --- |
| Cn1c(=O)c2[nH]cnc2n(C)c1=O.O | G/DL | 13.97 |
| Oc1cccc(O)c1O | G/DL | 14.12 |
| CN1[C@@H]2CC[C@H]1C[C@@H](OC(=O)C(CO)c1ccccc1)C2 (stereo partly drawn) | G/DL | 12.83 |
| CCN(CC)CCNC(=O)c1cc(S(C)(=O)=O)ccc1OC [TIAPRIDE] | G/DL | 13.22 |
| CN(C)CC[C@@H](c1ccc(Cl)cc1)c1ccccn1 | G/DL | 14.28 |
| CC(C)(C)CC(C)(C)c1ccc(OCCOCC[N+](C)(C)Cc2ccccc2)cc1.[Cl-] [BENZETHONIUM CHLORIDE] | G/DL | 13.32 |
| O.O.O.O.O.O.[Cl-].[Cl-].[Sr+2] [STRONTIUM CHLORIDE HEXAHYDRATE] | G/DL | 13.22 |
| Cc1ccc(NC(=O)c2ccc(CN3CCN(C)CC3)cc2)cc1Nc1nccc(-c2cccnc2)n1 | G/DL | 13.22 |
| C[C@]12C=CC(=O)C=C1CC[C@@H]1[C@@H]2[C@@H](O)C[C@@]2(C)[C@H]1CC[C@]2(O)C(=O)CO | G/DL | 13.72 |
| CN(C)CCOC(c1ccccc1)c1ccccc1 [DIPHENHYDRAMINE] | G/DL | 13.32 |
| CS(=O)(=O)c1ccc([C@@H](O)[C@@H](CO)NC(=O)C(Cl)Cl)cc1 | G/DL | 13.22 |
| CC(C)NCC(O)c1ccc(NS(C)(=O)=O)cc1 (stereo not drawn) | G/DL | 13.12 |
| NNc1nncc2ccccc12 [HYDRALAZINE] | G/DL | 13.32 |

----------
Species on record: Rattus norvegicus
measurementNotes: DrugMatrix - Regimen: Daily Repeat
Type: toxicity, organism-based, Sprague-Dawley
Design: regimen Daily Repeat, gender Male, age 6-8 weeks
testParameters: in vivo, po, 0 mg/kg, 120 h, tissue Plasma, route oral GAVAGE, dose level Control, time 5 day, vehicle .5 % CMC

| compound | SODIUM [MEQ/L] |
| --- | --- |
| CC(=O)Oc1ccc(C(c2ccc(OC(C)=O)cc2)c2ccccn2)cc1 | 150.17 |
| NC1CCN(c2nc3c(cc2F)c(=O)c(C(=O)O)cn3-c2ccc(F)cc2F)C1 (configuration not stated) | 155.5 |
| COC1=C(OC)C(=O)C(CCCCCCCCCCO)=C(C)C1=O | 143.03 |
| CC(C(=O)O)c1ccc2oc(-c3ccc(Cl)cc3)nc2c1 (configuration not stated) | 147 |
| O=C1CN=C(c2ccccc2Cl)c2cc([N+](=O)[O-])ccc2N1 | 143.03 |
| Clc1ccccc1CN1CCc2sccc2C1 | 150.5 |
| NCCCC(O)(P(=O)(O)O)P(=O)(O)O | 150.5 |
| COc1ccc(C2C(=O)c3ccccc3C2=O)cc1 | 150.5 |
| CCN(CC)CCOc1ccc(/C(=C(/Cl)c2ccccc2)c2ccccc2)cc1 | 143.8 |
| CN(C)[C@@H]1C(O)=C(C(N)=O)C(=O)[C@@]2(O)C(O)=C3C(=O)c4c(O)ccc(Cl)c4[C@@](C)(O)[C@H]3C[C@@H]12 | 143.95 |
| Cn1c(=O)c2c(ncn2CC(O)CO)n(C)c1=O (configuration not stated) | 143.95 |
| COc1cc2nc(N3CCN(C(=O)c4ccco4)CC3)nc(N)c2cc1OC | 143.62 |
| O=C1Nc2ccc(Cl)cc2C(c2ccccc2Cl)=NC1O (configuration not stated) | 143.62 |
| O=C1C(CC[S+]([O-])c2ccccc2)C(=O)N(c2ccccc2)N1c1ccccc1 (configuration not stated) | 143.62 |
| CN(C/C=C/C#CC(C)(C)C)Cc1cccc2ccccc12 | 155.5 |
| CN/C(=N/CCSCc1nc[nH]c1C)NC#N | 143.03 |
| C[C@H]1O[C@@H](n2cc(F)c(=O)[nH]c2=O)[C@H](O)[C@@H]1O | 143.03 |
